biological target: Fatty acid synthase (Homo sapiens) (UniProt P49327); experiment: FAS thioesterase domain inhibitors, SAR follow-up, biochemical, kinetic fluorescence, OMFH substrate, round 2, powder samples (AID 652286); conditions: recombinant FAS-TE, OMFH fluorogenic substrate
Sequence (P49327 whole entry, looked up, the tested form may be a part): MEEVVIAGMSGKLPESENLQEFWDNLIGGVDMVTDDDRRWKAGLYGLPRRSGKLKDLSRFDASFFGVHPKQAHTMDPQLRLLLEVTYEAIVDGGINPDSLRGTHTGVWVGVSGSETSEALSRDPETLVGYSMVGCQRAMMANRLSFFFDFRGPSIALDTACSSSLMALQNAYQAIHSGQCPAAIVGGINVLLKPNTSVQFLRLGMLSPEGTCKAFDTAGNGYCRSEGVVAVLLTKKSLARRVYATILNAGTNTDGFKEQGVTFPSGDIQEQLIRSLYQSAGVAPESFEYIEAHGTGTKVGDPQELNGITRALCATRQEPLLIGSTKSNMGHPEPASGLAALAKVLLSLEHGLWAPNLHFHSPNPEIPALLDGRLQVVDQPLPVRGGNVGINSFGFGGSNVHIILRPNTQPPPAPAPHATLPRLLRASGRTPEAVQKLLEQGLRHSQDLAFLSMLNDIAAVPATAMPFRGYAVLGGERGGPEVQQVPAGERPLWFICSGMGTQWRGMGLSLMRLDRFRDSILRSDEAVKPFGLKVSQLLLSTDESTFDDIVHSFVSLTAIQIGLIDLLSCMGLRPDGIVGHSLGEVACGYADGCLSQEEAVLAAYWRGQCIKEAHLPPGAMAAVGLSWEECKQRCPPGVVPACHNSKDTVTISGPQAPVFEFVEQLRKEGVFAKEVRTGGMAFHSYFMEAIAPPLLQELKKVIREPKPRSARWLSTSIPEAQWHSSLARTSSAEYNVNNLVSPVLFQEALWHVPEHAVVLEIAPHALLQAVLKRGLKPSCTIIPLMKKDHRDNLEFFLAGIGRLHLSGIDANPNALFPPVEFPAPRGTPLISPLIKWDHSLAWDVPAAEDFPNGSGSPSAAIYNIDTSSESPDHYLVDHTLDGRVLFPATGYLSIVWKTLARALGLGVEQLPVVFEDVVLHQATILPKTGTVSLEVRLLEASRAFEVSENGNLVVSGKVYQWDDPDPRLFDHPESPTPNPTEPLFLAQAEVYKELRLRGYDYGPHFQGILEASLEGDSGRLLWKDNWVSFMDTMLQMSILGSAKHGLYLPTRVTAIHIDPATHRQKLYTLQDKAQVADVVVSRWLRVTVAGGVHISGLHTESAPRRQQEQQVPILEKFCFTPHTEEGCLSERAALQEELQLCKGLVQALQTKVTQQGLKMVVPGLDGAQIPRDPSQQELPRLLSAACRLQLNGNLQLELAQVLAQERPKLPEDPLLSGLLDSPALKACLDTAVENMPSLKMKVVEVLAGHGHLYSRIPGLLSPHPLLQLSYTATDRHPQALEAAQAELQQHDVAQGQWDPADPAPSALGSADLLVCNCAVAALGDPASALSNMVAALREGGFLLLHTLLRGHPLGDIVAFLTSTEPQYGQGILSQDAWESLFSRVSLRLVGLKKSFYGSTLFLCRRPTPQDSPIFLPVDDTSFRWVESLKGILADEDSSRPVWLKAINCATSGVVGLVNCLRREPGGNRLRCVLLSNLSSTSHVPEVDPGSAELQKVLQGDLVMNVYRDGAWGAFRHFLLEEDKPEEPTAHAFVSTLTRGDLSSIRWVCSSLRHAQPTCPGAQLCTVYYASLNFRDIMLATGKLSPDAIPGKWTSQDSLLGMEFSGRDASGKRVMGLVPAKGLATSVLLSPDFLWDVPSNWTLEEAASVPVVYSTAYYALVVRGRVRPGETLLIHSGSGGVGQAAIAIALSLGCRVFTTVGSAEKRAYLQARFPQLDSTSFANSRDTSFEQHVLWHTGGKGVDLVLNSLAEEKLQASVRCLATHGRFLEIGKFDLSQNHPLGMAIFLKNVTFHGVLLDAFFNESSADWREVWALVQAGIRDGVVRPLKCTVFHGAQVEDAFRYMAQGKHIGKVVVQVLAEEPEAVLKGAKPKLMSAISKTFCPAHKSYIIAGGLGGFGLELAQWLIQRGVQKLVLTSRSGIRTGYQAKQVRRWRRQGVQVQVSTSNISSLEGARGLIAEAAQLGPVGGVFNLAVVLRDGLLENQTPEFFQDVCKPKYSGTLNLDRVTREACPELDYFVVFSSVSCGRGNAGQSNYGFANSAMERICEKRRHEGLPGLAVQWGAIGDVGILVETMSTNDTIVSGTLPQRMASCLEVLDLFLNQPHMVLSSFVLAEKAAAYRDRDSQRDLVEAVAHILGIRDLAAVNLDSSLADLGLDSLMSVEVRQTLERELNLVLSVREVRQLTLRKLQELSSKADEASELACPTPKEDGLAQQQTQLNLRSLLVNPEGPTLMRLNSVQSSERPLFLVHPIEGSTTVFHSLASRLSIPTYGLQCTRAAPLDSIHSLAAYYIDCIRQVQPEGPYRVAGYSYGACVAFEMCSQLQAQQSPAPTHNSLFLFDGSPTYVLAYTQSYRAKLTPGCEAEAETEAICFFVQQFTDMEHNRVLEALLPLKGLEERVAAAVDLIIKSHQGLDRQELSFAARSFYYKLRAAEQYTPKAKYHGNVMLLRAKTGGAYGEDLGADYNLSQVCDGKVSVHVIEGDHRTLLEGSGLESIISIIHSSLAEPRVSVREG
pIC50: −log10 of the molar value.
Outcome: T for pIC50 of at least 6; F for anything lower.

| compound | answer-label |
| --- | --- |
| CCC(CC)C(=O)Nc1nc(-c2ccc(S(=O)(=O)N3CCCC3)cc2)cs1 | T |
| CCC(C)C(=O)Nc1nc(-c2ccc(S(=O)(=O)N3CCC(C)CC3)cc2)cs1 (stereo not given) | T |
| CCCCCC(=O)Nc1nc(-c2ccc(S(=O)(=O)N(CC)CC)cc2)cs1 | T |
| CCCCCCC(=O)Nc1nc(-c2ccc(S(=O)(=O)N3CCC(C)CC3)cc2)cs1 | F |
| CCCCCCC(=O)Nc1nc(-c2ccc(S(=O)(=O)N3CCCCC3C)cc2)cs1 (stereo not given) | F |
| CCCCCC(=O)Nc1nc(-c2ccc(S(=O)(=O)N3CCCC3)cc2)cs1 | T |
| CCCCCC(=O)Nc1nc(-c2ccc(S(=O)(=O)N3CCCCC3C)cc2)cs1 (stereo not given) | T |
| CN(Cc1ccc(C(C)(C)C)cc1)C(=O)Cc1ccc(S(=O)(=O)N2CCOCC2)s1 | T |
| CC1CCN(S(=O)(=O)c2ccc(-c3csc(NC(=O)C(C)C)n3)cc2)CC1 | T |
